- Protocol: luciferase luminescence interference by compounds, confirmation, artefact control for SENP inhibitor project, biochemical, single concentration, SENP8 reaction pre-completed (AID 488919)
- Settings: Pre-incubated SENP8/Z-RLRGG-aminoluciferin, at 12.5 µM
The other results are listed elsewhere or left out. The source made the active and inactive calls.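 How the source made its calls: active means mean inhibition above about 50% when retested at one dose (limit read from the data); inactive means the rest.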
Entry note: the call must match one of t (active), f (inactive)

COc1ccc(C(=O)Nc2ccc3c(c2)OCO3)cc1OC	t
O=C(Nc1nc2ccc([N+](=O)[O-])cc2s1)c1ccncc1	f
Cc1cccc(OC(=O)c2sc3ncn(C)c(=O)c3c2C)c1	f
COc1cccc(C(=O)Nc2ccc(NC(=O)c3ccco3)cn2)c1	t
COc1ccc(C(=O)Nc2ccc(C3(C#N)CCCC3)cc2)cc1OC	t

Now, please, on to the next compound.
Inquiry: Hi team, can someone confirm the assay call for Nc1ncc(-c2cc3ccccc3oc2=O)s1 ?
Reply text: t

Value source: PubChem BioAssay
